assay: A CellTox Green Cytotoxicity Assay to monitor cytotoxicity in HEK293 cells - 16 hour (AID 1224888); details: CellTox Green fluorescence; series mostly up to 76.8 µM; also: nearly all actives have a fitted effect of over 35% in size
Records with an inconclusive call do not appear. The source made the active and inactive calls. Calls follow the shape of the dose curve; as a rule, active = well fitted activation curve with a large enough effect in the repeat runs; inconclusive = weak or mixed curves; inactive = flat fitted curve, though single readings scatter.
ATTRIBUTE_MEASURED: outcome

Completed entries (count: 4):
> print(dat)
                           compound  value.observed
1        O=[N+]([O-])c1cccc2cccnc12        inactive
2  CCOP(=S)(OCC)Oc1nc(Cl)n(C(C)C)n1        inactive
3    CC(=O)Nc1cc([As](=O)(O)O)ccc1O        inactive
4          CNC(=O)N(C)c1nc2ccccc2s1        inactive

Lookup: Kindly indicate its recorded outcome. Item: O=S(=O)(O)C(F)(F)C(F)(F)C(F)(F)C(F)(F)C(F)(F)C(F)(F)F
Found: inactive

Lookup: Kindly indicate its recorded outcome. Item: COCC(=O)N(c1c(C)cccc1C)N1CCOC1=O
Found: inactive

Lookup: Kindly indicate its recorded outcome. Item: OC(c1ccc(F)cc1)(c1cncnc1)c1ccccc1Cl (configuration not stated)
Found: inactive

Lookup: Kindly indicate its recorded outcome. Item: CCC1(c2ccccc2)C(=O)N=C(O)NC1=O (configuration not stated)
Found: inactive

Lookup: Kindly indicate its recorded outcome. Item: CN/C(=N\[N+](=O)[O-])NCC1CCOC1 (configuration not stated)
Found: inactive

====

biological target: Peroxisome proliferator-activated receptor delta (Homo sapiens) (UniProt Q03181); test: qHTS assay to identify small molecule antagonists of the peroxisome proliferator-activated receptor delta (PPARd) signaling pathway (AID 743215); details: HEK293H PPARd-UAS-bla, beta-lactamase FRET ratio, antagonist, 17 h; series mostly up to 62 µM;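 also: cells stimulated with agonist L165041 at 300 nM final during compound exposure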
Sequence (Q03181 whole entry, looked up): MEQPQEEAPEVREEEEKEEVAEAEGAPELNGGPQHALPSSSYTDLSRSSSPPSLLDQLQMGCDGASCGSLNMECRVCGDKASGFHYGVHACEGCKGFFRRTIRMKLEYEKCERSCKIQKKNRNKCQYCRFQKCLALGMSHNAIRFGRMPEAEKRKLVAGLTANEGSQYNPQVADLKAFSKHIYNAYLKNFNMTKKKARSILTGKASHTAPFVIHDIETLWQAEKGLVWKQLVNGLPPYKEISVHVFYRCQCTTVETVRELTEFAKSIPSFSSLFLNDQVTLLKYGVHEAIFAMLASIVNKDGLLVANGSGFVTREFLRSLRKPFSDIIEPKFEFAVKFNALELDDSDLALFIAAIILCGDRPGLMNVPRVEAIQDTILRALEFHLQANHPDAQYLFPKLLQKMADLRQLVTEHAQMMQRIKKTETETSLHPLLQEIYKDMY
Results filed as inconclusive are left out. Active and inactive are the calls of the source. Calls follow the shape of the dose curve; as a rule, active = well fitted inhibition curve with a large enough effect in the signal ratio in the repeat runs (not every such curve was filed as active); inconclusive = weak or mixed curves, or effect the other way; inactive = no such curve, though single readings can be large or run the other way; the % refers to the signal ratio.
ATTRIBUTE_MEASURED: outcome

Completed entries (count: 6):
> print(dat)
                                   molecule                               system.name  value.observed
1  CC1CCCCC1NC(=O)Nc1ccccc1 (configuration not stated)  Peroxisome proliferator-activated receptor delta (Homo sapiens) (UniProt Q03181)        inactive
2  CN1C[C@@H](NS(=O)(=O)N(C)C)C[C@@H]2c3cccc4c3c(cn4C)C[C@H]21  Peroxisome proliferator-activated receptor delta (Homo sapiens) (UniProt Q03181)        inactive
3             CC1=NNC(=O)N(/N=C/c2cccnc2)C1  Peroxisome proliferator-activated receptor delta (Homo sapiens) (UniProt Q03181)        inactive
4                          Fc1cc(Br)ccc1CBr  Peroxisome proliferator-activated receptor delta (Homo sapiens) (UniProt Q03181)        inactive
5     CCN(CC)CCOC(=O)C(C)(c1ccccc1)c1ccccc1  Peroxisome proliferator-activated receptor delta (Homo sapiens) (UniProt Q03181)        inactive
6          O=[N+]([O-])c1cc(Cl)c(Cl)c(Cl)c1  Peroxisome proliferator-activated receptor delta (Homo sapiens) (UniProt Q03181)        inactive

// switching to the query molecule
Lookup: Kindly indicate its recorded outcome. Item: CC(N)=S
Found: inactive

====

experiment: qHTS assay to identify small molecule antagonists of the androgen receptor (AR) signaling pathway using the MDA cell line - cell viability counter screen (AID 743041; also: nearly all actives have a fitted effect of over 45% in size); settings: MDA-kb2 viability, CellTiter-Fluor, 16 h, cells co-treated with R1881 androgen agonist; series mostly up to 70.3 µM
Inconclusive results are not listed. The source made the active and inactive calls. Calls come from the whole dose curve; as a rule, active = well fitted cell-killing curve with a large enough effect in the repeat runs; inconclusive = weak or mixed curves, or effect the other way; inactive = flat fitted curve, though single readings scatter.
ATTRIBUTE_MEASURED: outcome

Completed entries (count: 5):
> print(dat)
                                   compound  value.observed
1  CC(=O)[C@H]1CC[C@H]2[C@@H]3CC[C@H]4C[C@H](O)CC[C@]4(C)[C@H]3C(=O)C[C@]12C        inactive
2                   COC(=O)COc1ccc(Cl)cc1Cl        inactive
3                            Nc1n[nH]c(N)n1        inactive
4                            ClCC(Cl)(Cl)Cl        inactive
5                c1cc[c]([Hg][c]2ccccc2)cc1        inactive

// switching to the query compound
Lookup: Kindly indicate its recorded outcome. Item: COP(N)(=S)Oc1ccccc1C(=O)OC(C)C (stereo unspecified)
Found: inactive

Ref: PubChem BioAssay (Tox21)
